These measurements were taken from the supplement of paper PMC12764529.

- Assay protocol: folding stability dG unfold from chymotrypsin proteolysis; higher = more stable
Provide the reported folding stability dG unfold of each item.
Answers are plain numbers, in kcal/mol.

Here are 5 sequences together with their reported answers.
| Sequence entry | Result number |
| --- | --- |
| SAGGSAGGSAGGMIEKIEVTKLPDGTYKVTITIPLPNGPVITKTITIPPSETVEDAIAKLSAGGSAGGSAGG [r7_54_JUSTAS] | 2.19 |
| SAGGSAGGSAGGDPKAKPKKYYLIDLNARLVGVEVDPETGELTVTYELEGATLTLRFEGSAGGSAGGSAGGS [r10_962_TrMRF] | 2.78 |
| SAGGSAGGSAGGSMVYRVVLEPESGERVEFEVTYDEAEELLEKLPPNARLRIEPVPEDASAGGSAGGSAGGS [r4_63_TrMRF] | 0.265 |
| SAGGSAGGSAGGTVKELMKKLPFGAQIEIDEIEHDKGRIEIPIRVENMPPEWREKLRKLSAGGSAGGSAGGS [r10_733_TrROS] | 0.0365 |
| SMKSKIEVKTVTFTFSPDDPLAKTPLEEIISEKAKKEGKKIEIPSYSYTSTDPAKGTKTYTFTVKIIKEESA [r9_107_JUSTAS] | 0.797 |

Would you mind giving folding stability dG unfold for every sequence in the list below?
1. SAGGSAGGSAEKPPPPVVTLRVRVVVEVDGKLYVATAEVRLVDGKLEIRVRIEEVPPGAPVSAGGSAGGSAG [r3_49_TrROS_Hall]
2. SAGGSAGGGKVKVELEPLEDDSYRLRITVELPDGSKIEKPVILPSNVPPELSAEKVAEEILKKESAGGSAGG [r6_895_TrMRF]

Reply:
[4.59, -0.117]
